Below: a set of entries, each annotated with reported TGI.
System: HOP-62 NSCLC
Assay: NCI tumour cell line growth inhibition, 48 h
Answer with a number only, understood to be in µM.

Past entries and their recorded results:
- compound: "COC(=O)c1c(OC(C)=O)ccc2c1c1c(n2Cc2ccccc2)C(=O)c2ccccc2C1=O"
  unitAbbrev: "µM"
  TGI: 44.5
- compound: "COc1ccc(C(NCCNC(c2ccc(OC)c(OC)c2)c2cc3c(cc2O)OCO3)c2cc3c(cc2O)OCO3)cc1OC (stereo not given)"
  unitAbbrev: "µM"
  TGI: 30.6
- compound: "O=[N+]([O-])c1ccc(N=Nc2c(O)[nH]c3ccc(Br)cc23)c([N+](=O)[O-])c1"
  unitAbbrev: "µM"
  TGI: 21

Reported TGI for O=C1/C(=C\c2ccccc2)CN(C(=O)c2ccccc2F)C/C1=C\c1ccccc1 was 6.57

Reported TGI for Cc1nc(N=C(N)N)nc2ccc3ccccc3c12 was 3.6

----------
System: NCI/ADR-RES ovarian
Test: NCI tumour cell line growth inhibition, 48 h
Below: a set of entries, each annotated with reported TGI.

Past entries and their recorded results:
- compound: "CCN=C(N)CSS(=O)(=O)O"
  subjectOfTest: "NCI/ADR-RES ovarian"
  measuredParameter: "TGI"
  valueMeasured: "> 100 µM"
- compound: "N#CCCN(CCC#N)c1ccc(/C=C2\\N=C(c3ccccc3)N(NC(=O)c3ccncc3)C2=O)cc1"
  subjectOfTest: "NCI/ADR-RES ovarian"
  measuredParameter: "TGI"
  valueMeasured: "> 100 µM"
- compound: "Cc1c(/C=N\\NC(=S)N(C)CCN(C)C(=S)N/N=C\\c2c(C)n(C)n(-c3ccccc3)c2=O)c(=O)n(-c2ccccc2)n1C"
  subjectOfTest: "NCI/ADR-RES ovarian"
  measuredParameter: "TGI"
  valueMeasured: "> 100 µM"
- compound: "CSC(=S)Nc1cc(C)ccn1"
  subjectOfTest: "NCI/ADR-RES ovarian"
  measuredParameter: "TGI"
  valueMeasured: "> 100 µM"
- compound: "CC(=O)Nc1ccccc1S(=O)(=O)c1c(-c2c(C)c(Cl)c(C)c(Cl)c2C)noc1C"
  subjectOfTest: "NCI/ADR-RES ovarian"
  measuredParameter: "TGI"
  valueMeasured: "> 100 µM"

Record COc1cc2c(cc1OCCCN1CCN(CCCOc3cc4c(cc3OC)C(=O)C3CCC[C@H]3C=N4)CC1)N=C[C@@H]1CCCC1C2=O (some centres undefined) / NCI/ADR-RES ovarian, TGI recorded as > 100 µM

Record Cn1cc(-c2ccc3c(c2)ncn3-c2ccc(CC(=O)Nc3cc(C(C)(C)C)on3)cc2)cn1 / NCI/ADR-RES ovarian, TGI recorded as > 35.1 µM

Record CCCNc1c(Cl)cc(Cl)c2[nH]c3ccccc3c(=O)c12 / NCI/ADR-RES ovarian, TGI recorded as > 100 µM

Record c1ccc(COc2ccc(Nc3ncnc4ccc(-c5ccco5)cc34)cc2)cc1 / NCI/ADR-RES ovarian, TGI recorded as > 25 µM

----------
Tested on: MALME-3M melanoma
Experiment: NCI tumour cell line growth inhibition, 48 h
measuredParameter: TGI

- compound: "CSc1nc(NC2OC(CO)C(O)C(O)C2O)c(N)c(=O)n1C (stereo unspecified)"
  valueMeasured: "> 100 µM"
- compound: "O=C(Nc1ccc(-n2cc(-c3ccncc3)c(-c3ccc(O)c(Cl)c3)n2)cc1)c1ccc(Cl)c(Cl)c1"
  valueMeasured: "> 32.5 µM"

From here, focus on the item given below.
Reported TGI for O=Cc1cc(O)ccc1Br was > 31.6 µM
